# tested.target: PSE-2 (Pseudomonas aeruginosa, UniProt P14489)
# Sequence (P14489 20-266): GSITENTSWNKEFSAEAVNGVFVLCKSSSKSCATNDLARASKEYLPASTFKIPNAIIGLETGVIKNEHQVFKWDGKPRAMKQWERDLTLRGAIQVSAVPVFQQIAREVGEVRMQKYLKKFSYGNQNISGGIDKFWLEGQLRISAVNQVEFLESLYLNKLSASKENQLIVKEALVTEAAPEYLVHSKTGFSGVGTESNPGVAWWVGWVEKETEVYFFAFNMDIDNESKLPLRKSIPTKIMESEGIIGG
# test.protocol: Competitive assay with nitrocefin (RSAI)
# Format: biochemical, Ps.aerug. 1973E
# Parameters: Normally, therefore, the beta-lactamase has to be extracted from the cells for the purpose of the present invention; endogenous in cells
Outcome label depends on RSAI relative to 2: at/above gives rule met, below gives rule not met.

| molecule | category |
| --- | --- |
| CC1(C)[C@H](C(=O)O)N2C(=O)C[C@H]2S1(=O)=O [CP 45,899] | rule met |
| O=C(O)[C@H]1/C(=C/CO)O[C@@H]2CC(=O)N21 [Clavulanic acid] | rule not met |
| CC1(C)S[C@@H]2[C@H](NC(=O)[C@H](N)c3ccc(O)cc3)C(=O)N2[C@H]1C(=O)O [Amoxy-cillin, amoxycillin] | rule met |
| CO/N=C(\C(=O)N[C@@H]1C(=O)N2C(C(=O)O)=C(COC(N)=O)CS[C@H]12)c1ccco1 [Cefuroxime] | rule not met |
| CC1(C)S[C@@H]2[C@H](NC(=O)[C@H](C(=O)O)c3ccsc3)C(=O)N2[C@H]1C(=O)O [Ticar-cillin, ticarcillin] | rule met |
| CC1(C)S[C@@H]2[C@H](NC(=O)[C@H](NC(=O)N3CCNC3=O)c3ccccc3)C(=O)N2[C@H]1C(=O)O [Azlo-cillin, Azlocillin] | rule met |
| CC1(C)S[C@@H]2[C@H](NC(=O)[C@H](NC(=O)N3CCN(S(C)(=O)=O)C3=O)c3ccccc3)C(=O)N2[C@H]1C(=O)O [Mezlo-cillin, Mezlocillin] | rule met |
